measured on: Fetuin (UniProt P12763)
Sequence: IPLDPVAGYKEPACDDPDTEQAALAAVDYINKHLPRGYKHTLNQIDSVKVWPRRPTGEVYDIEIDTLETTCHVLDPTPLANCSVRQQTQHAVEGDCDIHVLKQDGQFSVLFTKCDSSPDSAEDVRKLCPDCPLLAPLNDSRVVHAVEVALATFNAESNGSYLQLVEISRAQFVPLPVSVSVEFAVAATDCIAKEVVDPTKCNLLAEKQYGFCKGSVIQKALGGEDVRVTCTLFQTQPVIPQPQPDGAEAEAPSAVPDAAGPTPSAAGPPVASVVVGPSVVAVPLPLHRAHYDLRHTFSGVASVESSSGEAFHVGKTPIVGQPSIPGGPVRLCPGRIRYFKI
assay text: filter
run conditions: T positions from B-TTP (quinoline-8-boronic acid linked at 5-position of dU via triazole), outside primer; specificity control

{"ordered residues": "CCTTCGTTGTCTGCCTTCGTAGCGGATCGAATTACGCGTTAACGGCAACCGATAACGGGACCGATTGCACACCCTTCAGAATTCGCACCA [85A B-TTP (114H)]", "measured on": "Fetuin (UniProt P12763)", "u": "nM", "Kd": 2200}

---

measured on: Alpha-1 acid glycoprotein (UniProt P02763)
Sequence (P02763 19-201): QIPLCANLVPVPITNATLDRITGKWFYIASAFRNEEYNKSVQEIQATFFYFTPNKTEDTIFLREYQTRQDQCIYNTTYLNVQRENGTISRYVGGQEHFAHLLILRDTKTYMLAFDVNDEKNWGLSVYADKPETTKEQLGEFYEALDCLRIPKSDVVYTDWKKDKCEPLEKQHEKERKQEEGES
assay text: filter
run conditions: T positions from B-TTP (quinoline-8-boronic acid linked at 5-position of dU via triazole), outside primer; specificity control
pKd: −log10 of the molar value.

{"ordered residues": "CCTTCGTTGTCTGCCTTCGTAGCGGATCGAATTACGCGTTAACGGCAACCGATAACGGGACCGATTGCACACCCTTCAGAATTCGCACCA [85A B-TTP (114H)]", "pKd": 6.15}
